Please respond with reported melting point for every item in the list.

Compound: Cc1cc(Cl)cc(Cl)c1N1CCn2c1nc1c(Cl)ccc(C(O)(C3CC3)C3CC3)c12
Value Observed: 193 to 196 °C
//
Compound: CC(=O)Nc1cccc2c1CCN(C(C)=O)C2
Value Observed: 154 to 156 °C
//
Compound: O=C(Nc1cccc2c1C(=O)c1c-2n[nH]c1C1CCN(C(=O)c2cccs2)CC1)NN1CCOCC1
Value Observed: 218 to 220 °C
//
Compound: c1coc(CNCc2ccc(-c3cc4ncnc(Nc5ccc6[nH]ccc6c5)c4s3)cc2)c1
Value Observed: 125 to 134 °C
//
Compound: COc1cc(C(C)=NNC(=N)NCc2ccccc2)cc(OC)c1OC
Value Observed: 107 to 109 °C
//
Compound: C=C(COCc1ccccc1)C(O)C(NC=O)C(=O)OCC (centres undefined)
Value Observed: 112 to 114 °C
//
Compound: OCc1cc(Cl)cc(Cl)c1Cl
Value Observed: 90 to 93 °C
//
Compound: CC(C)c1cnc(NC(=O)Cc2csc(N)n2)s1
Value Observed: 201 to 203 °C
//
Compound: CCOC(=O)N1CCC(NC(=S)Nc2cc(Cl)ccc2NCc2ccccc2)CC1
Value Observed: 162 °C
//
Compound: CC1NC(=O)NN=C1c1ccc(NC(=O)Nc2ccccc2)cc1 (centres undefined)
Value Observed: > 140 °C

Value sought for every listed compound: melting point.
1. COc1ccc(N2CCN(c3c(C)c(C)c4c(c3C)OC(C)(C)C4(O)c3ccc(C)cc3)CC2)cc1 (centres undefined)
2. CCOC1CC2(C)C(CCC3C4CCC(=O)C4(C)CC(=O)C32)CC1O (centres undefined)
3. COc1cc(OCC(=O)N[C@@H]2CCN(Cc3ccccc3)C2)ccc1C=O
4. Cc1nc2ccc(N3CCN[C@H](C)C3)nn2c1-c1ccnc2[nH]ccc12
5. COc1ccc(N2CCOCC2)cc1NC(=S)c1nc2ccc(C)nc2[nH]1
6. CC1CCC(n2ncc(-c3ccc(S(C)(=O)=O)cc3)c(-c3ccc(F)cc3)c2=O)C1 (centres undefined)

### Response
1: 162 to 164 °C; 2: 164 to 167 °C; 3: 98 to 101 °C; 4: 202 to 204 °C; 5: 189 to 191 °C; 6: 169 to 171 °C

Value sought for every listed compound: melting point.
1. O=C(Cc1ccccc1)c1ccc(OCCN2CCCC2)cc1
2. CCOC(=O)c1cccc2nc3cc(C(=O)c4ccccc4)ccc3nc12
3. CCN(CC)CCCNC(=O)Cn1cc(-c2ccccc2)cn1

### Response
1. 77 to 78 °C
2. 115 to 116 °C
3. 55 to 57 °C

Value sought for every listed compound: melting point.
1. CC(C)C(CNC(=O)OCc1ccccc1)C(=O)O (centres undefined)
2. Cc1cn(Nc2cccc(Cl)c2)c(=S)n1-c1ccc(Br)cc1
3. CC(C)c1ccccc1NN
4. Cn1cnc2cc(NC(=O)c3cc4cc(F)cnc4n3Cc3cccc(F)c3)ccc21
5. CCOC(=O)c1[nH]cc2c1NC1=C(C(=O)CCC1)C2c1ccc(Sc2nc3cc(F)c(F)cc3[nH]2)o1 (centres undefined)
6. CC1(CCC#N)N=C(c2ccc(Cl)cc2)OC1=O (centres undefined)
7. COc1ccc2cc(CCC(C)=O)cc(F)c2c1

### Response
["75.5 to 78.5 °C", "220 °C", "206 to 210 °C", "266 to 268 °C", "160 to 170 °C", "97 to 98 °C", "69 to 70 °C"]

Value sought for every listed compound: melting point.
1. CON=C(C)c1cc2c(Oc3ccc(Cl)cc3)cncc2s1
2. CCOc1ccc2[nH]c(=O)n(N3CCOCC3)c2c1
3. Cn1cc(Br)cc(Nc2ccncn2)c1=O

### Response
1: 126 to 128 °C; 2: 155 °C; 3: 217 to 219 °C
